target: Histone deacetylase 1 (Homo sapiens, UniProt Q13547); assay: Inhibition of human recombinant HDAC1 using fluorogenic HDAC substrate by fluorescence assay
Sequence (Q13547 whole entry): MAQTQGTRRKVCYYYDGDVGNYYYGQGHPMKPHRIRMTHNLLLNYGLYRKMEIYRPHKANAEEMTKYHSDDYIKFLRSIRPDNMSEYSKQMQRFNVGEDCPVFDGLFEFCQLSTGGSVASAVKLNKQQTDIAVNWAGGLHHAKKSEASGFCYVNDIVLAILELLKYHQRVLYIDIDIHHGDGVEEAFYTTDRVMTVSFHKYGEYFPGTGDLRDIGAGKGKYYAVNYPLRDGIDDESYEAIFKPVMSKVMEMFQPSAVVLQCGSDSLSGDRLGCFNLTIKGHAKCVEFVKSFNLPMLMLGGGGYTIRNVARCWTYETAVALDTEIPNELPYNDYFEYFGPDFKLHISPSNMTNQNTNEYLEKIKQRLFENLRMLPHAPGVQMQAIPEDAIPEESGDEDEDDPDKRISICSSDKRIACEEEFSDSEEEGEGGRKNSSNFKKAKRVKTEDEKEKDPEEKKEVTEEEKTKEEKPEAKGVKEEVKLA
pIC50: −log10 of the molar value.
ENDPOINT NAME: pIC50

[in] Give the value of pIC50 reported for the following: CN(Cc1ccc(C(=O)NO)cc1F)CC12CC3CC(CC(C3)C1)C2
[out] < 6.00

====

target: Histone deacetylase 5 (Homo sapiens, UniProt Q9UQL6); test: Inhibition of recombinant human HDAC5 expressed in HEK293T/17 cells using Boc-Lys(TFA)-AMC as substrate preincubated for 10 mins followed by substrate addition and measured after 30 mins by fluorescence-based assay
Sequence (Q9UQL6 whole entry): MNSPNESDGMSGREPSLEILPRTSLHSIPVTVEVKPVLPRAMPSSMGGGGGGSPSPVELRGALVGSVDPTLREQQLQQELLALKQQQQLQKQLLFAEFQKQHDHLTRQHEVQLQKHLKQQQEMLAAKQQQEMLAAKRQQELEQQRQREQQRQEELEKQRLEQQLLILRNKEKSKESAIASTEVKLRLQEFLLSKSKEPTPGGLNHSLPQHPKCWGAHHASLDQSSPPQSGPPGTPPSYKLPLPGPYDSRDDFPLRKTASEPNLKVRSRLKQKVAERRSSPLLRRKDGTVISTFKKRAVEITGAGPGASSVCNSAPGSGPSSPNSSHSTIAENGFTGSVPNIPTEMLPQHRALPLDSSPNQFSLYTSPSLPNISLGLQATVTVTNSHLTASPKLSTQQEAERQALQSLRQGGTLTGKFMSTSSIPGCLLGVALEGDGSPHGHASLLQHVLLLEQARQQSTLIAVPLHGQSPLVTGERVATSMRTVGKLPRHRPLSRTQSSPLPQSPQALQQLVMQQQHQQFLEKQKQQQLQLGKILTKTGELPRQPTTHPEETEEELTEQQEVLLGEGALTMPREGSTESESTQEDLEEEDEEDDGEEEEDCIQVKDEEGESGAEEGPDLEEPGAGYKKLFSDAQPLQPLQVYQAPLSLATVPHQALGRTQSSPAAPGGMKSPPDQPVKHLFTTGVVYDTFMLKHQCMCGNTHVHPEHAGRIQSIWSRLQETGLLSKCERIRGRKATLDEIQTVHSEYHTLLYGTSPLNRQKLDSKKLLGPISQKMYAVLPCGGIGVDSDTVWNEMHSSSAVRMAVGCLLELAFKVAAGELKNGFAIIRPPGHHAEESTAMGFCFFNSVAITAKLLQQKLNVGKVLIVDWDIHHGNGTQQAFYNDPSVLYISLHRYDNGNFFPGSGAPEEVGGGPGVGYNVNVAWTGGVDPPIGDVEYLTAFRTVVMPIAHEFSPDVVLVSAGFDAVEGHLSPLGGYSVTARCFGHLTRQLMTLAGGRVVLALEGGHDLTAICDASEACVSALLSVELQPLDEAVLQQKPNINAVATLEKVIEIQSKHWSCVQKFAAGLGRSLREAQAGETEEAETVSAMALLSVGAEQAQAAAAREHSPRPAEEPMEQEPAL
ENDPOINT NAME: pIC50
Please note pIC50 is a logarithmic value: minus log10 of concentration in mol/L. Answer with that number alone.

[in] Give the value of pIC50 reported for the following: O=C(NO)c1ccc(CNC(=O)c2ccc(Cl)c(Cl)c2)cc1
[out] 5.51
